test-system: human NaV 1.8 (Homo sapiens)
protocol-notes: E-VIPR assay detecting and measuring NaV inhibition properties
Type: cell-based
stated-conditions: HEK cells expressing truncated human NaV 1.8; no human serum; read-out: IC50 in the E-VIPR Assay
pIC50: −log10 of the molar value.
Here the recorded pIC50 is given for each entry.

Completed entries (count: 2):
CNC(=O)CN(C)c1cc(NC(=O)[C@@H]2O[C@@](C)(C(F)(F)F)[C@@H](C)[C@H]2c2ccc(F)c(F)c2OC)ccn1 [Compound 487]: > 8.00
COc1c([C@H]2[C@H](C(=O)Nc3ccc(C(=O)NS(C)(=O)=O)nc3)O[C@@](C)(C(F)(F)F)[C@H]2C)ccc(F)c1F [Compound 375]: 6.00 to 7.00

Continue with the next molecule.
Q. Tell me the measured pIC50 of COc1c([C@H]2[C@H](C(=O)Nc3cnn(C4COC4)c3C)O[C@@](C)(C(F)(F)F)[C@H]2C)ccc(F)c1F (single isomer, unassigned) [Compound 331] , please.
A. 7.00 to 8.00

---

test-system: human NaV 1.8 (Homo sapiens, UniProt Q9Y5Y9)
Sequence (Q9Y5Y9 126-399 limits assumed): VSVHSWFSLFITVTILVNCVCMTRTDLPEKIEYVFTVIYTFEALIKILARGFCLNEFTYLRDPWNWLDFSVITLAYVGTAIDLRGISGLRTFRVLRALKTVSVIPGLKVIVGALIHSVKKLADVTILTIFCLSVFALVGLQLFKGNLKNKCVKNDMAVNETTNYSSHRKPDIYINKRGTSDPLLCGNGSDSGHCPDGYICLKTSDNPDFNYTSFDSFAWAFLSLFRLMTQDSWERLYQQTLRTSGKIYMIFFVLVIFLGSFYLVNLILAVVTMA
Sequence (Q9Y5Y9 660-890 limits assumed): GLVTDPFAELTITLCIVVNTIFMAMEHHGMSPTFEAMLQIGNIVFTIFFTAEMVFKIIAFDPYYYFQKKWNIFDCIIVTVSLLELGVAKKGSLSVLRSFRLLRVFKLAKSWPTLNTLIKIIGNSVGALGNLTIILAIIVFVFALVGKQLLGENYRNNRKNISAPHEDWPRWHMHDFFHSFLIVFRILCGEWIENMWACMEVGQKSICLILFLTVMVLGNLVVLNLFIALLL
Sequence (Q9Y5Y9 1148-1722 limits assumed): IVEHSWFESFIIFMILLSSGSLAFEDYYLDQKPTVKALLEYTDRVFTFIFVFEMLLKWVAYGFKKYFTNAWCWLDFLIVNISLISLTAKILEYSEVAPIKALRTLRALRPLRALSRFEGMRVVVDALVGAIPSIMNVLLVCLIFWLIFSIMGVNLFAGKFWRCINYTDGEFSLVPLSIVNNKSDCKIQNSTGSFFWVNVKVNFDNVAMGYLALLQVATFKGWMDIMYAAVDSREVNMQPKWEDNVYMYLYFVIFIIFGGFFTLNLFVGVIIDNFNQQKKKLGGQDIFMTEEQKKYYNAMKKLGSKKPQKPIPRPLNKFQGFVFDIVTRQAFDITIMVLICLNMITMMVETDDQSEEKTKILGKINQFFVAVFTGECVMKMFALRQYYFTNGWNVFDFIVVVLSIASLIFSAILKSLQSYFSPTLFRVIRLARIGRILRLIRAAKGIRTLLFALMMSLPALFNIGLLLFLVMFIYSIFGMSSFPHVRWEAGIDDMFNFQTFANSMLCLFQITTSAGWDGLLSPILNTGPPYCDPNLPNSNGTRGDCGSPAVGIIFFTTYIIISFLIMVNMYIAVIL
protocol-notes: E-VIPR assay detecting and measuring NaV inhibition properties
Type: cell-based
stated-conditions: HEK cells expressing truncated human NaV 1.8; no human serum; read-out: IC50 in the E-VIPR Assay
pIC50: −log10 of the molar value.
property-measured: pIC50

Completed entries (count: 2):
C[C@H]1[C@@H](c2ccc(F)c(F)c2OCCN2CC3(COC3)C2)[C@H](C(=O)Nc2ccc3nncn3c2)O[C@@]1(C)C(F)(F)F: 7.00 to 8.00
C[C@H]1[C@@H](c2ccc(F)c(F)c2OCCO)[C@H](C(=O)Nc2cnc(N3CCOCC3)nc2)O[C@@]1(C)C(F)(F)F: ≤ 6.00

Continue with the next compound.
Q. Tell me the measured pIC50 of COc1c([C@@H]2[C@@H](C(=O)Nc3ccc(C(N)=O)nc3)O[C@](C)(C(F)(F)F)[C@@H]2C)ccc(F)c1C(F)F (stereo in doubt) , please.
A. ≤ 6.00

---

test-system: human NaV 1.8 (Homo sapiens, UniProt Q9Y5Y9)
protocol-notes: E-VIPR assay detecting and measuring NaV inhibition properties
Type: cell-based
stated-conditions: HEK cells expressing truncated human NaV 1.8; no human serum; read-out: IC50 in the E-VIPR Assay
Excerpt: Sodium ion channels are voltage-dependent proteins that can be activated by inducing membrane voltage changes by applying electric fields. The electrical stimulation instrument and methods of use, referred to as E-VIPR, are described in International Publication No. WO 2002/008748 A3 and C.-J. Huang et al. Characterization of voltage-gated sodium channel blockers by electrical stimulation and fluorescence detection of membrane potential, 24 Nature Biotech. […]
property-measured: IC50

Completed entries (count: 3):
Cc1nn(C(F)F)cc1NC(=O)[C@@H]1O[C@@](C)(C(F)(F)F)[C@@H](C)[C@H]1c1ccc(F)c(F)c1CCc1cn[nH]c1 [Compound 681]: 10 to 100 nM
COc1c([C@H]2[C@H](C(=O)Nc3ccnc(C4(N)COC4)n3)O[C@@](C)(C(F)(F)F)[C@H]2C)ccc(F)c1F [Compound 310]: 10 to 100 nM
COCC(O)c1cc(NC(=O)[C@@H]2O[C@@](C)(C(F)(F)F)[C@@H](C)[C@H]2c2ccc(F)c(F)c2OC)ccn1 (single isomer, unassigned) [Compound 222]: < 10 nM

Q. Tell me the measured IC50 of C[C@H]1[C@@H](c2ccc(F)c(F)c2OC(F)F)[C@H](C(=O)Nc2ccnc(C(O)CO)c2)O[C@@]1(C)C(F)(F)F (single isomer, unassigned) [Compound 82] , please.
A. < 10 nM

Q. Tell me the measured IC50 of COc1c([C@H]2[C@H](C(=O)Nc3ccnc(C(C)(O)CO)c3)O[C@@](C)(C(F)(F)F)[C@H]2C)ccc(F)c1F (single isomer, unassigned) [Compound 202] , please.
A. < 10 nM

Q. Tell me the measured IC50 of COc1c([C@H]2[C@H](C(=O)Nc3cnc4c(c3)C(O)CC4)O[C@@](C)(C(F)(F)F)[C@H]2C)ccc(F)c1F (single isomer, unassigned) [Compound 434] , please.
A. 100 to 1000 nM

---

test-system: human NaV 1.8 (Homo sapiens, UniProt Q9Y5Y9)
protocol-notes: E-VIPR assay detecting and measuring NaV inhibition properties
Type: cell-based
stated-conditions: HEK cells expressing truncated human NaV 1.8; no human serum; read-out: IC50 in the E-VIPR Assay
property-measured: IC50

COc1c([C@@H]2[C@@H](C(=O)Nc3ccc(C(=O)O)nc3)O[C@](C)(C(F)(F)F)[C@@H]2C)ccc(F)c1C(F)F (single isomer, unassigned): ≥ 1000 nM
COc1c([C@H]2[C@H](C(=O)Nc3cnc4c(c3)OCC4O)O[C@@](C)(C(F)(F)F)[C@H]2C)ccc(F)c1F (single isomer, unassigned) [Compound 408]: 10 to 100 nM
COc1c([C@H]2[C@H](C(=O)Nc3ccnc(C[C@H]4COCCN4)c3)O[C@@](C)(C(F)(F)F)[C@H]2C)ccc(F)c1F: 10 to 100 nM
COc1c([C@H]2[C@H](C(=O)Nc3cc(C(O)CF)ncc3F)O[C@@](C)(C(F)(F)F)[C@H]2C)ccc(F)c1F (single isomer, unassigned): < 10 nM

Continue with the next compound.
Q. Requested read-out IC50, target or system human NaV 1.8 (Homo sapiens, UniProt Q9Y5Y9), entry COc1c([C@H]2[C@H](C(=O)Nc3cn(C4COC4)nc3C)O[C@@](C)(C(F)(F)F)[C@H]2C)ccc(F)c1F (single isomer, unassigned)
A. < 10 nM

---

test-system: human NaV 1.8 (Homo sapiens, UniProt Q9Y5Y9)
protocol-notes: E-VIPR assay detecting and measuring NaV inhibition properties
Assay type: cell-based
stated-conditions: HEK cells expressing truncated human NaV 1.8; no human serum; read-out: IC50 in the E-VIPR Assay
pIC50: −log10 of the molar value.
property-measured: pIC50

Completed entries (count: 10):
Cc1nn(C(F)F)cc1NC(=O)[C@@H]1O[C@@](C)(C(F)(F)F)[C@@H](C)[C@H]1c1ccc(F)c(F)c1CN(C)C1CCOCC1: 7.00 to 8.00
COc1c([C@H]2[C@H](C(=O)NCC3CN(C)C(=O)CO3)O[C@@](C)(C(F)(F)F)[C@H]2C)ccc(F)c1F (stereo partly drawn): ≤ 6.00
COc1c([C@H]2[C@H](C(=O)Nc3cc(S(C)(=O)=O)nn3C)O[C@@](C)(C(F)(F)F)[C@H]2C)ccc(F)c1F: > 8.00
C[C@H]1[C@@H](c2ccc(F)c(F)c2OCC(C)(F)F)[C@H](C(=O)Nc2ccnc(CO)c2)O[C@@]1(C)C(F)(F)F: > 8.00
COc1c([C@H]2[C@H](C(=O)Nc3ccc4cnnn4c3)O[C@@](C)(C(F)(F)F)[C@H]2C)ccc(F)c1C(F)F (stereo in doubt): > 8.00
[2H]C([2H])([2H])Oc1c([C@H]2[C@H](C(=O)Nc3ccnc(N4CCNCC4=O)c3)O[C@@](C)(C(F)(F)F)[C@H]2C)ccc(F)c1F: 7.00 to 8.00
C[C@H]1[C@@H](c2ccc(F)c(F)c2OC(F)F)[C@H](C(=O)Nc2ccnnc2)O[C@@]1(C)C(F)(F)F (stereo in doubt): > 8.00
COc1c([C@@H]2[C@@H](C(=O)Nc3ccnc(N4CCN(C)CC4=O)c3)O[C@](C)(C(F)(F)F)[C@@H]2C)ccc(F)c1C(F)F (single isomer, unassigned): 6.00 to 7.00
COc1c([C@H]2[C@H](C(=O)Nc3ccc(NS(C)(=O)=O)nc3)O[C@@](C)(C(F)(F)F)[C@H]2C)ccc(F)c1F: 7.00 to 8.00
COc1c([C@H]2[C@H](C(=O)Nc3ccc(C4(N)COC4)nc3)O[C@@](C)(C(F)(F)F)[C@H]2C)ccc(F)c1F: 7.00 to 8.00

Q. Tell me the measured pIC50 of COc1c([C@H]2[C@H](C(=O)Nc3ccc(C(C)(O)CF)nc3)O[C@@](C)(C(F)(F)F)[C@H]2C)ccc(F)c1F (single isomer, unassigned) , please.
A. 6.00 to 7.00

Q. Tell me the measured pIC50 of COc1c([C@H]2[C@H](C(=O)Nc3ccc(C(=O)O)nc3)O[C@@](C)(C(F)(F)F)[C@H]2C)ccc(F)c1C(F)F (single isomer, unassigned) , please.
A. > 8.00

---

Here the recorded pIC50 is given for each entry.
test-system: human NaV 1.8 (Homo sapiens)
protocol-notes: E-VIPR assay detecting and measuring NaV inhibition properties
Type: cell-based
stated-conditions: HEK cells expressing truncated human NaV 1.8; no human serum; read-out: IC50 in the E-VIPR Assay
From the text: Sodium ion channels are voltage-dependent proteins that can be activated by inducing membrane voltage changes by applying electric fields. The electrical stimulation instrument and methods of use, referred to as E-VIPR, are described in International Publication No. WO 2002/008748 A3 and C.-J. Huang et al. Characterization of voltage-gated sodium channel blockers by electrical stimulation and fluorescence detection of membrane potential, 24 Nature Biotech. […]
pIC50: −log10 of the molar value.

Completed entries (count: 5):
COc1c([C@H]2[C@H](C(=O)Nc3ccnc(CN4CCC[C@H]4CO)c3)O[C@@](C)(C(F)(F)F)[C@H]2C)ccc(F)c1F: > 8.00
COc1c([C@@H]2C[C@](C)(C(F)(F)F)O[C@H]2C(=O)Nc2ccnc([C@@H](O)CO)c2)ccc(F)c1C (single isomer, unassigned): 7.00 to 8.00
COc1ncc(NC(=O)[C@@H]2O[C@@](C)(C(F)(F)F)[C@@H](C)[C@H]2c2ccc(F)c(F)c2OCCO)cn1: 6.00 to 7.00
C[C@H]1[C@@H](c2ccc(F)c(F)c2OCCO)[C@H](C(=O)Nc2ccnc(C(C)(C)O)c2)O[C@@]1(C)C(F)(F)F: > 8.00
COc1c([C@H]2[C@H](C(=O)Nc3cnc(CCO)nc3)O[C@@](C)(C(F)(F)F)[C@H]2C)ccc(F)c1F: 7.00 to 8.00

Continue with the next molecule.
Q. Requested read-out pIC50, target or system human NaV 1.8 (Homo sapiens), entry COc1c([C@H]2[C@H](C(=O)Nc3ccnc(N4C[C@@H]5C[C@H](C4=O)N5C)c3)O[C@@](C)(C(F)(F)F)[C@H]2C)ccc(F)c1F (single isomer, unassigned)
A. 7.00 to 8.00
